Entry source: the Human Domainome abundance scans (Beltran et al. 2025)

B1: Zinc finger MYM-type protein 2, residues 463 to 506; numbered along this chain, Q9UBW7 (parent)
chain: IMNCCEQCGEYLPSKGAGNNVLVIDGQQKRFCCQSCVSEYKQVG

- Variants of: B1
- PROTOCOL_DETAILS: abundance fitness (aPCA) (normalised: wild type 0, dead -1); higher = more abundant; growth selection in yeast, the domain comes from the species named
- APPLIED_CONDITIONS: Homo sapiens
Consider the following variants; for each one, report its abundance fitness.
One number for each entry.

INSERT INTO results (residue_change, test_value) VALUES
  ('C4N', 0.214),
  ('Q27A', -0.045),
  ('D25H', 0.126);

Parameters: items (list). Returns: abundance fitness for each item.
1. Q34R
2. C8F
3. I1N
4. E39S
5. Q28M

Found:
[-0.232, -1.18, 0.097, 0.054, -0.123]
